Tested on: GIST-R3
Measurement description: Cancer cell proliferation inhibition, cell viability after 72 hours
Format: cell-based
Applied conditions: imatinib/sunitinib-resistant, GIST patient originated
Metric name: IC50 (nM)

| Compound | Metric name | Quantitative result |
| --- | --- | --- |
| Cc1cn(-c2cc(NC(=O)c3ccc(C)c(C#Cc4cnc5c(Nc6cnn(C7CCN(C)CC7)c6)cccn45)c3)cc(C(F)(F)F)c2)cn1 | IC50 | 328 |

---

Listed next: entries and their corresponding pIC50.
Test system: MDA-MB-231
Measurement description: Real time cell proliferation, IncuCyte ZOOM, 72 hours
Assay type: cell-based
Applied conditions: Homo sapiens, MDA-MB-231, 72 h
pIC50: −log10 of the molar value.

| Compound | Result operator | pIC50 |
| --- | --- | --- |
| CCN1CCN(Cc2ccc(NC(=O)c3ccc(C)c(C#Cc4cnc5c(Nc6cnn(C)c6)cccn45)c3)cc2C(F)(F)F)CC1 | = | 7.02 |
| CCN1CCN(Cc2ccc(NC(=O)c3ccc(C)c(C#Cc4cnc5c(Nc6cnn(C(C)C)c6)cccn45)c3)cc2C(F)(F)F)CC1 | = | 6.24 |
| Cc1ccc(C(=O)Nc2ccc(CN3CCN(C)CC3)c(C(F)(F)F)c2)cc1C#Cc1cnc2c(Nc3ncccc3F)cccn12 | = | 5.79 |
| CCn1cc(Nc2cccn3c(C#Cc4cc(C(=O)Nc5ccc(CN6CCN(C)CC6)c(C(F)(F)F)c5)ccc4C)cnc23)cn1 | = | 6.50 |
| Cc1ccc(C(=O)Nc2ccc(CN3CCN(C)CC3)c(C(F)(F)F)c2)cc1C#Cc1cnc2c(Nc3ncccc3C)cccn12 | = | 5.08 |
| Cc1ccc(C(=O)Nc2ccc(CN3CCC(F)(F)CC3)c(C(F)(F)F)c2)cc1C#Cc1cnc2c(Nc3cnn(C)c3)cccn12 | < | 5.00 |

---

Tested on: M-NFS-60
Measurement description: Cancer cell proliferation inhibition, CCK-8, 72 hours
Format: cell-based
pIC50: −log10 of the molar value.
Listed next: entries and their corresponding pIC50.
Metric name: pIC50

| Compound | Metric name | Quantitative result |
| --- | --- | --- |
| Cc1ccc(C(=O)Nc2ccc(CN3CCN(C)[C@@H](C)C3)c(C(F)(F)F)c2)cc1C#Cc1cnc2c(Nc3cnn(C)c3)cccn12 | pIC50 | 7.36 |
| Cc1ccc(C(=O)Nc2cccc(C(F)(F)F)c2)cc1C#Cc1cnc2c(Nc3cnn(CCCN(C)C)c3)cccn12 | pIC50 | 7.25 |
| Cc1ccc(C(=O)Nc2ccc(CN3CC[C@H](N(C)C)C3)c(C(F)(F)F)c2)cc1C#Cc1cnc2c(Nc3cnn(C)c3)cccn12 | pIC50 | 7.51 |
| Cc1ccc(C(=O)Nc2cccc(F)c2)cc1C#Cc1cnc2c(Nc3cnn(C)c3)cccn12 | pIC50 | 8.17 |
| Cc1ccc(C(=O)Nc2ccc(CN3CC[C@@H](N(C)C)C3)c(C(F)(F)F)c2)cc1C#Cc1cnc2c(Nc3cnn(C)c3)cccn12 | pIC50 | 7.39 |
| CN1CCN(Cc2ccc(NC(=O)c3ccc(F)c(C#Cc4cnc5c(Nc6cnn(C)c6)cccn45)c3)cc2C(F)(F)F)CC1 | pIC50 | 7.34 |
| COc1cc(NC(=O)c2ccc(C)c(C#Cc3cnc4c(Nc5cnn(C)c5)cccn34)c2)cc(OC)c1 | pIC50 | 8.09 |

---

Study target: T315I (Ba/F3) (Homo sapiens, UniProt P00519, T315I, cells depend on it)
Construct: fused on or other part: P11274 (Breakpoint cluster region protein)
Measurement description: Cancer cell proliferation inhibition, CCK-8, 72 hours
Assay type: cell-based
Applied conditions: read-out: T315I (Ba/F3) IC50
Measured GI50 determines class: low (below 30 nM), middle (30 nM to below 100 nM), high (100 nM or more)

| Compound | Class assignment |
| --- | --- |
| Cc1cn(-c2cc(NC(=O)c3ccc(C)c(C#Cc4cnc5c(Nc6cnn(C)c6)cccn45)c3)cc(C(F)(F)F)c2)cn1 | low |
| CCN1CCN(Cc2ccc(NC(=O)c3ccc(C)c(C#Cc4cnc5c(Nc6ccn(C)n6)cccn45)c3)cc2C(F)(F)F)CC1 | middle |
| COCCCn1cc(Nc2cccn3c(C#Cc4cc(C(=O)Nc5ccc(CN6CCC(N(C)C)C6)c(C(F)(F)F)c5)ccc4C)cnc23)cn1 (stereo not shown) | middle |
| CCN1CCN(Cc2ccc(NC(=O)c3ccc(C)c(C#Cc4cnc5c(Nc6ncccc6F)cccn45)c3)cc2C(F)(F)F)CC1 | high |
| Cc1ccc(C(=O)Nc2ccc(CN3CCC(F)(F)CC3)c(C(F)(F)F)c2)cc1C#Cc1cnc2c(Nc3cnn(C)c3)cccn12 | high |
| Cc1ccc(C(=O)Nc2ccc(Cl)c(C(F)(F)F)c2)cc1C#Cc1cnc2c(Nc3cnn(C)c3)cccn12 | high |
| COCCn1cc(Nc2cccn3c(C#Cc4cc(C(=O)Nc5cc(-n6cnc(C)c6)cc(C(F)(F)F)c5)ccc4C)cnc23)cn1 | low |
| Cc1ccc(NC(=O)c2ccc(CN3CCN(C)CC3)c(C(F)(F)F)c2)cc1C#Cc1cnc2c(Nc3cnn(C)c3)cccn12 | middle |
| Cc1ccc(C(=O)Nc2cccc(C(F)(F)F)c2)cc1C#Cc1cnc2c(Nc3cnn(C4CCN(C)CC4)c3)cccn12 | middle |
| Cc1ccc(C(=O)Nc2ccc(CN3CCN(C)CC3)c(C(F)(F)F)c2)cc1C#Cc1cnc2c(Nc3ncccc3C)cccn12 | high |
| COCCn1cc(Nc2cccn3c(C#Cc4cc(C(=O)Nc5cccc(C(F)(F)F)c5)ccc4C)cnc23)cn1 | low |
| Cc1ccc(C(=O)Nc2ccc(CN3CCN(C)CC3)c(C(F)(F)F)c2)cc1C#Cc1cnc2c(Nc3cnn(C(C)C)c3)cccn12 | high |

---

Study target: EPHB6 (Homo sapiens)
Sequence (O15197 32-1021): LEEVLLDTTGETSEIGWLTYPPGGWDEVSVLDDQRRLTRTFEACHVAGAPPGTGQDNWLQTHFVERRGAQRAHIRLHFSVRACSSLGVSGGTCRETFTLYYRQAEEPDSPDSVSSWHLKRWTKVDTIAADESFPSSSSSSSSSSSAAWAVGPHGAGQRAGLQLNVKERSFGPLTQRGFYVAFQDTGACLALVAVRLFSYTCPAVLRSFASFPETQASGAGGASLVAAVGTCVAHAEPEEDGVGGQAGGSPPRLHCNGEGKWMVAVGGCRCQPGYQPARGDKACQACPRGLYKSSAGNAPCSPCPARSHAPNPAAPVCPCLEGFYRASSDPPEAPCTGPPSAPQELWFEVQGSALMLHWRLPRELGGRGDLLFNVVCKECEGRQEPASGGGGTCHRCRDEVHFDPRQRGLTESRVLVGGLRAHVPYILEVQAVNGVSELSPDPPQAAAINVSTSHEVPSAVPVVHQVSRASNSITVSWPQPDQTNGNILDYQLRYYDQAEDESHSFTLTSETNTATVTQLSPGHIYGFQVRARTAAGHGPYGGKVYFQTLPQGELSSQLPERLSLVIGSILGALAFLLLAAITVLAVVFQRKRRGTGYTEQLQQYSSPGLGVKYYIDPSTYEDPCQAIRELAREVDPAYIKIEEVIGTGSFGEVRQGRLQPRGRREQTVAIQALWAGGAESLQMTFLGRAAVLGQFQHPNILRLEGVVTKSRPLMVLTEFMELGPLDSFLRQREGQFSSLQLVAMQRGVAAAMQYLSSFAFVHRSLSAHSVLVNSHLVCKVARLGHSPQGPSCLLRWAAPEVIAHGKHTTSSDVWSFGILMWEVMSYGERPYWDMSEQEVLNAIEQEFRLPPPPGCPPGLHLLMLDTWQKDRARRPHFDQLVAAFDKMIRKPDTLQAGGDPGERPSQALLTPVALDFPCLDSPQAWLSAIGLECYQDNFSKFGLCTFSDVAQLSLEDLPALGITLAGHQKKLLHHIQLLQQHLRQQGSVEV
Metric name: Kd (nM)

| Compound | Metric name | Quantitative result |
| --- | --- | --- |
| Cc1ccc(NC(=O)C2(C(=O)Nc3ccc(F)cc3)CC2)cc1C#Cc1cnc2c(Nc3cnn(C(C)C)c3)cccn12 | Kd | 15 |

---

pKd: −log10 of the molar value.
What follows is a collection of pKd values obtained with FGFR4 (Homo sapiens).
Sequence (P22455 22-802): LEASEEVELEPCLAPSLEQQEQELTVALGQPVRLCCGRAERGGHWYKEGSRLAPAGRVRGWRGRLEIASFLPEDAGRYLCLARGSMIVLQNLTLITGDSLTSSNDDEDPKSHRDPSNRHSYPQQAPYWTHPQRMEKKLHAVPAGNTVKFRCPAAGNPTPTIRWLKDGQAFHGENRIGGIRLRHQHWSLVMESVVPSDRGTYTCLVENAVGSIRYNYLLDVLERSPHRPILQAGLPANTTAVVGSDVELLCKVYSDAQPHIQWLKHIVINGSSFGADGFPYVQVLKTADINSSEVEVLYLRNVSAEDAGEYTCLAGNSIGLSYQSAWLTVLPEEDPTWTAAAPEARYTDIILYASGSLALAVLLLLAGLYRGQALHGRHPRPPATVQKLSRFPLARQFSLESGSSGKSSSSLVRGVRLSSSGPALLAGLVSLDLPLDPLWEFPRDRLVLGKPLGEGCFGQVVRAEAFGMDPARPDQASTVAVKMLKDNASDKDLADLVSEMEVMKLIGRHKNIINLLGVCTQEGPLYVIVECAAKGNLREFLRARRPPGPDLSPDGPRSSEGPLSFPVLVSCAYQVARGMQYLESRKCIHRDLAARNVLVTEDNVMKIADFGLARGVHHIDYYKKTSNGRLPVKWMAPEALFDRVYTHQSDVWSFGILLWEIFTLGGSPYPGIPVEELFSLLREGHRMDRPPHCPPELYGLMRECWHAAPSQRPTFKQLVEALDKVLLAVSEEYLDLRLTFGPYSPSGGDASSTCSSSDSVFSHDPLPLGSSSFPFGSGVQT

| Molecule | pKd |
| --- | --- |
| Cc1cn(-c2cc(NC(=O)c3ccc(C)c(C#Cc4cnc5c(Nc6cnn(C)c6)cccn45)c3)cc(C(F)(F)F)c2)cn1 | 6.43 |
| Cc1ccc(C(=O)Nc2ccc(CN3CCC(N(C)C)C3)c(C(F)(F)F)c2)cc1C#Cc1cnc2c(Nc3cnn(C(C)C)c3)cccn12 (centres unmarked) | 6.72 |
| Cc1ccc(C(=O)Nc2ccc(CN3CCN(C)CC3)c(C(F)(F)F)c2)cc1C#Cc1cnc2c(Nc3cnn(C)c3)cccn12 | 7.25 |
| CCN1CCN(Cc2ccc(NC(=O)c3ccc(C)c(C#Cc4cnc5c(Nc6cnn(C(C)C)c6)cccn45)c3)cc2C(F)(F)F)CC1 | 6.89 |
| CCN1CCN(Cc2ccc(NC(=O)c3ccc(C)c(C#Cc4cnc5c(Nc6cnn(C)c6)cccn45)c3)cc2C(F)(F)F)CC1 | 7.24 |
